Target: Human GLP-1 receptor (Homo sapiens)
Construct: The full-length cDNA was cloned in pcDNA3.1(+); expressed in transfected cells
Sequence (P43220 24-463): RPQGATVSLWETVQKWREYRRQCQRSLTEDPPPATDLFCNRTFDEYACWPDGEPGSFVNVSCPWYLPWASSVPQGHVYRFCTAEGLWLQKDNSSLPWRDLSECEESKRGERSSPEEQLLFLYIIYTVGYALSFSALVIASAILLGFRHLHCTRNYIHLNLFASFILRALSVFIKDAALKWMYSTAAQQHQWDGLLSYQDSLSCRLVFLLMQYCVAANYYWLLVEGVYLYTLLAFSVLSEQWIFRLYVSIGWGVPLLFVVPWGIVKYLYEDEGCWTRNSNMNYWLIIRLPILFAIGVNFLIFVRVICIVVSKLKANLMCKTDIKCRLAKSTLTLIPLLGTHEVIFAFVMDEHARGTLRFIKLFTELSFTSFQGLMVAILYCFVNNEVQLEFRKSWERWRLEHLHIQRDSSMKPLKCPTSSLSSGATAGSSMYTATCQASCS
Test: In vitro Human GLP-1 R agonist activity (cyclic AMP determination) in CHO/human GLP1R cells
Format: cell-based
Conditions: 1 nM test compound
Hi! Could you tag entries with Human GLP-1 R activity (cAMP release), % activity with respect to control below 40% as rule met, and those at or above as rule not met? Much appreciated.

q: I'd appreciate it if you could check whether CCc1cc(OC)ccc1-c1ccc(CC(CNC(CCCc2ccccc2)C(N)=O)NC[C@H](CC(=O)O)NC(=O)[C@H](CO)NC(=O)[C@@H](NC(=O)C(C)(Cc2ccccc2F)NC(=O)[C@@H](NC(=O)CNC(=O)C(CCC#N)NC(=O)C(C)(C)NC(=O)[C@@H](N)Cc2c[nH]cn2)[C@H](C)O)[C@H](C)O)cc1 (single isomer, unassigned) has Human GLP-1 R activity (cAMP release), % activity with respect to control smaller than 40%.
a: rule not met

q: I'd appreciate it if you could check whether CCc1cc(OC)ccc1-c1ccc(CC(NC(=O)[C@H](CC(=O)O)NC(=O)[C@H](CO)NC(=O)[C@@H](NC(=O)[C@H](Cc2ccccc2)NC(=O)[C@@H](NC(=O)CNC(=O)[C@H](CCC(N)=O)NC(=O)C2(NC(=O)[C@@H](N)Cc3c[nH]cn3)CC2)[C@@H](C)O)[C@@H](C)O)C(=O)NC(CCCc2ccc(F)cc2C(F)(F)F)C(N)=O)cc1 (single isomer, unassigned) has Human GLP-1 R activity (cAMP release), % activity with respect to control smaller than 40%.
a: rule not met

q: I'd appreciate it if you could check whether CCc1cc(OC)ccc1-c1ccc(CC(NC(=O)[C@H](CC(=O)O)NC(=O)[C@H](CO)NC(=O)[C@@H](NC(=O)[C@H](Cc2ccccc2)NC(=O)[C@@H](NC(=O)CNC(=O)C(CCC#N)NC(=O)C(C)(C)NC(=O)[C@@H](N)Cc2c[nH]cn2)[C@@H](C)O)[C@@H](C)O)C(=O)NC(CCCc2ccc(OC)cc2Cl)C(N)=O)cc1 (single isomer, unassigned) has Human GLP-1 R activity (cAMP release), % activity with respect to control smaller than 40%.
a: rule met

q: I'd appreciate it if you could check whether CCc1cc(OC)ccc1-c1ccc(CC(C(=O)N(C)C(CCCc2ccccc2F)C(N)=O)N(C)C(=O)[C@H](CC(=O)O)N(C)C(=O)[C@H](CO)NC(=O)[C@@H](NC(=O)C(C)(Cc2ccccc2F)NC(=O)[C@@H](NC(=O)CNC(=O)C(CCC#N)NC(=O)C(C)(C)NC(=O)[C@@H](N)Cc2c[nH]cn2)[C@H](C)O)[C@H](C)O)cc1 (single isomer, unassigned) has Human GLP-1 R activity (cAMP release), % activity with respect to control smaller than 40%.
a: rule not met

q: I'd appreciate it if you could check whether CCc1cc(OC)ccc1-c1ccc(CC(C(=O)N(C)C(CCCc2ccccc2)C(N)=O)N(C)C(=O)[C@H](CC(=O)O)N(C)C(=O)[C@H](CO)NC(=O)[C@@H](NC(=O)C(C)(Cc2ccccc2F)NC(=O)[C@@H](NC(=O)CNC(=O)C(CCC#N)NC(=O)C(C)(C)NC(=O)[C@@H](N)Cc2c[nH]cn2)[C@H](C)O)[C@H](C)O)cc1 (single isomer, unassigned) has Human GLP-1 R activity (cAMP release), % activity with respect to control smaller than 40%.
a: rule not met

* * *

Assay: Stability in simulated intestinal fluid
Format: in vitro ADME
Settings: 2 μM peptidomimetic, simulated intestinal fluid pH 7.5, 37° C., 24 h
Description: Reactions were terminated by the addition of TFA/H2O (15 mL, 10% (v/v)). […] The column was equilibrated with TFA/H20, at a flow rate of 1 mL/min.
Non-standard residues stand in square brackets, D forms with d. Residues, ends and D or L forms follow the SMILES beside them. ξ: configuration not given here. ξBip(2'-Et-4'-OMe) = CCc1cc(OC)ccc1-c1ccc(CC(N)C(=O)O)cc1; ξNva(5-(3-Cl-Ph)) = NC(CCCc1cccc(Cl)c1)C(=O)O; Ac5c = NC1(C(=O)O)CCCC1
measurementKind: % degradation of peptidomimetics in 24 h when incubated with simulated intestinal fluid
In your response, put the unit directly after the numeric value.

q: % degradation of peptidomimetics in 24 h when incubated with simulated intestinal fluid for CCc1cc(OC)ccc1-c1ccc(CC(NC(=O)[C@H](CC(=O)O)NC(=O)[C@H](CO)NC(=O)[C@@H](NC(=O)C(C)(Cc2ccccc2F)NC(=O)[C@@H](NC(=O)CNC(=O)C(CCC#N)NC(=O)C(C)(C)NC(=O)[C@H](Cc2c[nH]cn2)NC(C)=O)[C@@H](C)O)[C@@H](C)O)C(=O)NC(CCCc2ccccc2)C(N)=O)cc1 (single isomer, unassigned) ?
a: 00%

q: % degradation of peptidomimetics in 24 h when incubated with simulated intestinal fluid for CCc1cc(OC)ccc1-c1ccc(CC(NC(=O)[C@H](CC(=O)O)NC(=O)[C@H](CO)NC(=O)[C@@H](NC(=O)C(C)(Cc2ccccc2F)NC(=O)[C@@H](NC(=O)CNC(=O)[C@H](CC(C(F)(F)F)C(F)(F)F)NC(=O)C(C)(C)NC(=O)[C@@H](N)Cc2c[nH]cn2)[C@H](C)O)[C@H](C)O)C(=O)NC(CCCc2ccccc2F)C(N)=O)cc1 (some centres unmarked) ?
a: 100%

q: % degradation of peptidomimetics in 24 h when incubated with simulated intestinal fluid for CCc1cc(OC)ccc1-c1ccc(CC(NC(=O)[C@H](CC(=O)O)NC(=O)[C@H](CO)NC(=O)[C@@H](NC(=O)[C@H](Cc2ccccc2)NC(=O)[C@@H](NC(=O)CNC(=O)[C@H](CCC(N)=O)NC(=O)C2(NC(=O)[C@@H](N)Cc3c[nH]cn3)CCCC2)[C@@H](C)O)[C@@H](C)O)C(=O)NC(CCCc2cccc(Cl)c2)C(N)=O)cc1 (some centres unmarked) [compound 27] (H-H[Ac5c]QGTFTSD[ξBip(2'-Et-4'-OMe)][ξNva(5-(3-Cl-Ph))]-NH2) ?
a: 00%

q: % degradation of peptidomimetics in 24 h when incubated with simulated intestinal fluid for CCc1cc(OC)ccc1-c1ccc(CC(NC(=O)[C@H](CC(=O)O)NC(=O)[C@H](CO)NC(=O)[C@@H](NC(=O)C(C)(Cc2ccccc2F)NC(=O)[C@@H](NC(=O)CNC(=O)[C@H](CC(C(F)(F)F)C(F)(F)F)NC(=O)C(C)(C)NC(=O)[C@H](Cc2c[nH]cn2)NC(C)=O)[C@@H](C)O)[C@@H](C)O)C(=O)NC(CCCc2ccccc2)C(N)=O)cc1 (single isomer, unassigned) ?
a: 100%

q: % degradation of peptidomimetics in 24 h when incubated with simulated intestinal fluid for CCc1cc(OC)ccc1-c1ccc(CC(NC(=S)[C@H](CC(=O)O)NC(=O)[C@H](CO)NC(=O)[C@@H](NC(=O)C(C)(Cc2ccccc2F)NC(=O)[C@@H](NC(=O)CNC(=O)C(CCC#N)NC(=O)C(C)(C)NC(=O)[C@@H](N)Cc2c[nH]cn2)[C@H](C)O)[C@H](C)O)C(=S)NC(CCCc2ccccc2)C(N)=O)cc1 (single isomer, unassigned) ?
a: 00%

* * *

Hi there, I'd appreciate the recorded Human GLP-1 R activity (cAMP release), % activity with respect to control for every entry that follows.
Molecular target: Human GLP-1 receptor (Homo sapiens)
Construct: The full-length cDNA was cloned in pcDNA3.1(+); expressed in transfected cells
Test: In vitro Human GLP-1 R agonist activity (cyclic AMP determination) in CHO/human GLP1R cells
Type: cell-based
Conditions: 100 nM test compound
Write the number in % without appending the unit.

q: Human GLP-1 R activity (cAMP release), % activity with respect to control for CCc1cc(OC)ccc1-c1ccc(CC(NC(=O)[C@H](CC(=O)O)NC(=O)[C@H](CO)NC(=O)[C@@H](NC(=O)[C@H](Cc2ccccc2)NC(=O)[C@@H](NC(=O)CNC(=O)[C@H](CCC(N)=O)NC(=O)C2(NC(=O)[C@@H](N)Cc3c[nH]cn3)CC2)[C@@H](C)O)[C@@H](C)O)C(=O)NC(CCCc2ccc(F)cc2C(F)(F)F)C(N)=O)cc1 (single isomer, unassigned) [compound 72] ?
a: 90

q: Human GLP-1 R activity (cAMP release), % activity with respect to control for CCc1cc(OC)ccc1-c1ccc(CC(NC(=O)[C@H](CC(=O)O)NC(=O)[C@H](CO)NC(=O)[C@@H](NC(=O)[C@H](Cc2ccccc2)NC(=O)[C@@H](NC(=O)CNC(=O)C(CCC#N)NC(=O)C(C)(C)NC(=O)[C@@H](N)Cc2c[nH]cn2)[C@@H](C)O)[C@@H](C)O)C(=O)NC(CCCc2ccc(Cl)cc2C)C(N)=O)cc1 (single isomer, unassigned) [compound 32] ?
a: 88

q: Human GLP-1 R activity (cAMP release), % activity with respect to control for CCc1cc(OC)ccc1-c1ccc(CC(NC(=O)[C@H](CC(=O)O)NC(=O)[C@H](CO)NC(=O)[C@@H](NC(=O)C(C)(Cc2ccccc2F)NC(=O)[C@@H](NC(=O)CNC(=O)C(CCC#N)NC(=O)C(C)(C)NC(=O)[C@@H](N)Cc2c[nH]cn2)[C@@H](C)O)[C@H](C)O)C(=O)NC(CCCc2ccccc2F)C(N)=O)cc1 (single isomer, unassigned) [compound 120] ?
a: 99
